Attribution: PubChem BioAssay (NCI)

system: OVCAR-8 ovarian; test: NCI-60 one-dose screen, 48 h (100 = growth as untreated, 0 = no growth, -100 = all killed); details: 10 µM unless noted
About 83,000 compounds went through this panel and 20% of them were active in at least one assay; those are over-represented in the sample as a whole. Active and inactive are the calls of the source. How the source made its calls: active means growth percent below 10; inactive means the rest.
Quantity measured: growth

For orientation, consider the following solved cases.
[
  {
    "Substance smiles": "N=C(N)N=Nc1ccc(O)cc1",
    "Quantity measured": "growth",
    "Assay result": "36.7% [100 µM] (inactive)"
  },
  {
    "Substance smiles": "CCCCC[C@H]1CC=C2C(=O)C(Cl)=C[C@@H]2CC=CCCCC(=O)O[C@@H](CCCCC)CC=C2C(=O)C(Cl)=C[C@@H]2CC=CCCCC(=O)O[C@@H](CCCCC)CC=C2C(=O)C(Cl)=C[C@@H]2CC=CCCCC(=O)O1",
    "Quantity measured": "growth",
    "Assay result": "-17.1% [8 µM] (active)"
  },
  {
    "Substance smiles": "Brc1ccc2[nH]cc(-c3nc(-c4c[nH]c5ncccc45)cs3)c2c1",
    "Quantity measured": "growth",
    "Assay result": "46.3% (inactive)"
  },
  {
    "Substance smiles": "Cc1cccc2c1NC(=O)[C@@]21[C@H](C(=O)c2ccccc2)[C@]2(C(=O)Nc3ccccc32)[C@H]2CCCN21",
    "Quantity measured": "growth",
    "Assay result": "-17.2% [100 µM] (active)"
  },
  {
    "Substance smiles": "O=C1CCC/C=C\\C[C@H]2C=C(Cl)C(=O)/C2=C/C[C@H](CCCCC(F)(F)F)OC(=O)CCC/C=C\\C[C@H]2C=C(Cl)C(=O)/C2=C/C[C@H](CCCCC(F)(F)F)O1",
    "Quantity measured": "growth",
    "Assay result": "-4.7% [7.5 µM] (active)"
  },
  {
    "Substance smiles": "N#C/C(=C\\c1ccc(-c2ccc(Cl)cc2)o1)c1nc(-c2ccco2)cs1",
    "Quantity measured": "growth",
    "Assay result": "97.5% (inactive)"
  }
]

For record O=S(=O)(NCCNc1cc(-c2cn(-c3ccccc3)nc2-c2cccc(O)c2)ccn1)c1cccc(F)c1 the listed growth is 34.2% (inactive)

# compound O=C1C=Cc2ncccc2C1=O ; its growth = 87.8% (inactive)

====

test system: NCI-H322M lung; experiment: NCI-60 one-dose screen, 48 h (100 = growth as untreated, 0 = no growth, -100 = all killed); conditions: 10 µM unless noted
This is part of a sample that, as a whole, favours compounds with a hit. Of some 83,000 tested, about 20% had one in any assay. Active and inactive are the calls of the source. Rule for the calls: active = growth percent below 10; inactive = the rest.
Quantity measured: growth

Completed entries (count: 3):
[
  {
    "Molecule": "O=C1NC(=Nc2ccc(S(=O)(=O)Nc3nccs3)cc2)S/C1=C\\c1coc2ccccc2c1=O",
    "growth": "101% (inactive)"
  },
  {
    "Molecule": "CN(C)c1ccc(C(=O)c2ccc(N(C)C)c(N)c2)cc1N",
    "growth": "49.3% (inactive)"
  },
  {
    "Molecule": "Cn1c(=O)c2c(nc(Br)n2CC(=O)Nc2ccc(F)cc2)n(C)c1=O",
    "growth": "111% (inactive)"
  }
]

// growth value for O=C1C=C(C(O)c2ccc(O)cc2)C(=O)c2ccccc21 (stereo not given) : 95.2% (inactive)

====

tested on: HS 578T breast; test: NCI-60 one-dose screen, 48 h (100 = growth as untreated, 0 = no growth, -100 = all killed); conditions: 10 µM unless noted
Compounds without any hit were thinned out: in the full panel of roughly 83,000, 20% have a hit.
Use label 1 when the recorded growth is no lower than 30%; use label 0 when it is lower.

[
  {
    "Compound": "CC(=O)OCCCCCCn1c2ccccc2c2c3c(c4c5ccccc5n(C)c4c21)C(=O)N(O)C3=O",
    "Assigned class": "label 1"
  },
  {
    "Compound": "Oc1cccc2ccc(N/N=C/c3cc(CN4CCCCC4)c(O)c4ncccc34)nc12",
    "Assigned class": "label 0"
  },
  {
    "Compound": "CC1(C)c2ccccc2C(=O)C1(Br)Cc1ccccc1 (stereo not given)",
    "Assigned class": "label 1"
  },
  {
    "Compound": "Fc1ccc2[nH]cc(-c3nc(-c4c[nH]c5ncccc45)cs3)c2c1",
    "Assigned class": "label 1"
  },
  {
    "Compound": "Cc1nc([P+](c2ccccc2)(c2ccccc2)c2ccccc2)c(Sc2sc(-c3ccccc3)nc2[P+](c2ccccc2)(c2ccccc2)c2ccccc2)o1",
    "Assigned class": "label 0"
  },
  {
    "Compound": "CCCCN1CCCCn2c1nc1c2c(=O)n(C)c(=O)n1C",
    "Assigned class": "label 1"
  },
  {
    "Compound": "CCN(CC)CCCCCNc1cc(OC(=O)c2ccccc2)cc2cccnc12",
    "Assigned class": "label 1"
  },
  {
    "Compound": "Cc1ccc(-c2nn(Cc3cn(-c4cc(C)nc5ccccc45)nn3)c3ncnc(N)c23)cc1",
    "Assigned class": "label 0"
  }
]

Could you tell me if the measured growth of COc1cc(/C=C/c2cc(/C=C/c3ccc(O)c(OC)c3)n(-c3ccccc3)c(=O)n2)ccc1O reaches 30% or more?
label 1

In plain terms: is recorded growth at least 30% for c1ccc2c(-c3nc(-c4c[nH]c5ncccc45)cs3)c[nH]c2c1 ?
label 1

====

system: MDA-MB-435 melanoma; assay: NCI-60 one-dose screen, 48 h (100 = growth as untreated, 0 = no growth, -100 = all killed); conditions: 10 µM unless noted
This is part of a sample that, as a whole, favours compounds with a hit. Of some 83,000 tested, about 20% had one in any assay.
# key: entry, value: growth
// return numeric value only (unit: %, not printed)

Sample records with growth:
[
  {
    "Molecule": "CCc1cccc(CC)c1NC(=O)c1sc2nc3c(cc2c1N)CCCC3",
    "Unit text": "%",
    "growth": 7.29
  },
  {
    "Molecule": "CCOc1ccc(NC(=O)c2ccoc2COc2ccccc2)cc1",
    "Unit text": "%",
    "growth": 103
  },
  {
    "Molecule": "COc1cc2[nH]c(C(=O)c3cc(OC)c(OC)c(OC)c3)c(N)c2cc1C#CCO",
    "Unit text": "%",
    "growth": -27.1
  }
]

For reference, reported growth for NC1(N)C=CC2=C(C=C1)C1(N)C3=C(C=CC(N)(N)C=C3)N2C2(N)C3=C(C=CC(N)(N)C=C3)N1C1=C2C=CC(N)(N)C=C1 stands at 89.8

O=C1C=Cc2ncccc2C1=O has a reported growth of 58.2

Value of growth reported for the molecule O=C(NCN1C(=O)c2cccc3cccc(c23)C1=O)N1CCC(Cc2ccccc2)CC1 is 104

Cc1nnc2nc(N)[nH]n2c1=O has a reported growth of 113

Entry O=C1c2ccccc2NC(c2cn(-c3ccccc3)nc2-c2cccs2)N1Cc1ccccc1 (stereo not given) , growth reported as 97.5

For record O=S(=O)(NCCNc1cc(-c2cn(-c3ccccc3)nc2-c2cccc(O)c2)ccn1)c1ccc(Cl)cc1 the listed growth is 23.3

In plain terms, C/C(=N\Nc1cc(C)c2ccccc2n1)c1ccccn1 has a documented growth of -90.9

====

system: NCI-H522 lung; test: NCI-60 one-dose screen, 48 h (100 = growth as untreated, 0 = no growth, -100 = all killed); conditions: 10 µM unless noted
About 83,000 compounds went through this panel and 20% of them were active in at least one assay; those are over-represented in the sample as a whole. Active and inactive are the calls of the source. Rule for the calls: active = growth percent below 10; inactive = the rest.
Quantity measured: growth

Reference set (5 entries):
[
  {
    "Molecule": "CN1CCN(CCOc2ccc(-c3cnc4c(-c5cccc(F)c5)cnn4c3)cc2)CC1",
    "Quantity measured": "growth",
    "Assay result": "82% (inactive)"
  },
  {
    "Molecule": "O=C1C=Cc2ncccc2C1=O",
    "Quantity measured": "growth",
    "Assay result": "88.8% (inactive)"
  },
  {
    "Molecule": "Cn1cc(-c2csc(-c3c[nH]c4ccc(F)cc34)n2)c2cccnc21",
    "Quantity measured": "growth",
    "Assay result": "12.6% (inactive)"
  },
  {
    "Molecule": "COC(=O)[C@]12CC[C@@H](C)[C@H](C)[C@@H]1C1=CC(=O)[C@@H]3[C@@]4(C)C[C@@H](O)[C@H](O)[C@@]5(C)COC(=C45)C[C@@]3(C)[C@]1(C)CC2",
    "Quantity measured": "growth",
    "Assay result": "51% (inactive)"
  },
  {
    "Molecule": "CCCCC/C(=C\\c1ccccc1)C1OC(C)C(C)O1 (stereo unspecified)",
    "Quantity measured": "growth",
    "Assay result": "68.5% (inactive)"
  }
]

Now examine the next entry.
get_value(item= CC1=NN(c2ccc(S(=O)(=O)O)cc2Cl)C(=O)C1 , readout=growth) returns 97.4% (inactive)
